Cited source: ChEMBL document CHEMBL1151705

Tested on: Streptococcus pneumoniae
Assay: Antimicrobial activity against Streptococcus pneumoniae 6 constitutively expressing ermB after 20 hrs by agar dilution method
Assay type: functional
Conditions: Streptococcus pneumoniae, 20 h; read-out: MIC
MIC reference

# COMPOUND, MIC
data = [
    ("CCOC(=O)[C@H]1[C@H](C)O[C@@H](O[C@H]2[C@H](N(C)C)[C@@H](O)[C@H](O[C@H]3[C@@H](CC=O)C[C@@H](C)[C@@H](O)CN(C)CCC[C@@H](C/C=C/c4ccnc5ccccc45)OC(=O)C[C@@H](OC(=O)CC)[C@@H]3OC)O[C@@H]2C)C[C@@]1(C)O", "> 128 µg/mL"),
    ("CCOC(=O)[C@H]1[C@H](C)O[C@@H](O[C@H]2[C@H](N(C)C)[C@@H](O)[C@H](O[C@H]3[C@@H](CC=O)C[C@@H](C)[C@@H](O)CN(CCCCc4ccccc4)CCC[C@@H](C)OC(=O)C[C@@H](OC(=O)CC)[C@@H]3OC)O[C@@H]2C)C[C@@]1(C)OC(C)=O", "64 µg/mL"),
    ("CCOC(=O)[C@H]1[C@H](C)O[C@@H](O[C@H]2[C@H](N(C)C)[C@@H](O)[C@H](O[C@H]3[C@@H](CC=O)C[C@@H](C)[C@@H](O)CN(C)CCC[C@H](CCCc4cnc5ccccc5c4)OC(=O)C[C@@H](OC(=O)CC)[C@@H]3OC)O[C@@H]2C)C[C@@]1(C)O", "128 µg/mL"),
    ("CCC(=O)O[C@@H]1CC(=O)NCCCN(CCCc2ccnc3ccccc23)C[C@H](O)[C@H](C)C[C@H](CC=O)[C@H](O[C@@H]2O[C@H](C)[C@@H](O)[C@H](N(C)C)[C@H]2O)[C@H]1OC", "> 128 µg/mL"),
    ("CCOC(=O)[C@H]1[C@H](C)O[C@@H](O[C@H]2[C@H](N(C)C)[C@@H](O)[C@H](O[C@H]3[C@@H](CC=O)C[C@@H](C)[C@@H](OC(C)=O)CN(CCCCc4ccccc4)CC[C@@H](C)OC(=O)C[C@@H](OC(=O)CC)[C@@H]3OC)O[C@@H]2C)C[C@@]1(C)OC(C)=O", "> 128 µg/mL"),
    ("CCOC(=O)[C@H]1[C@H](C)O[C@@H](O[C@H]2[C@H](N(C)C)[C@@H](O)[C@H](O[C@H]3[C@@H](CC=O)C[C@@H](C)[C@@H](O)CN(C)CC(/C=C\\Cc4ccnc5ccccc45)CCOC(=O)C[C@@H](OC(=O)CC)[C@@H]3OC)O[C@@H]2C)C[C@@]1(C)O (stereo in doubt; form 1)", "> 128 µg/mL"),
    ("CCOC(=O)[C@H]1[C@H](C)O[C@@H](O[C@H]2[C@H](N(C)C)[C@@H](O)[C@H](O[C@H]3[C@@H](CC=O)C[C@@H](C)[C@@H](O)CN(CCCc4ccnc5ccccc45)CC[C@@H](C)OC(=O)C[C@@H](OC(=O)CC)[C@@H]3OC)O[C@@H]2C)C[C@@]1(C)OC(C)=O", "> 128 µg/mL"),
    ("CCOC(=O)[C@H]1[C@H](C)O[C@@H](O[C@H]2[C@H](N(C)C)[C@@H](O)[C@H](O[C@H]3[C@@H](CC=O)C[C@@H](C)[C@@H](OC(C)=O)CN(CCCCc4ccccc4)C[C@@H](C)OC(=O)C[C@@H](OC(=O)CC)[C@@H]3OC)O[C@@H]2C)C[C@@]1(C)OC(C)=O", "> 128 µg/mL"),
    ("CCOC(=O)[C@H]1[C@H](C)O[C@@H](O[C@H]2[C@H](N(C)C)[C@@H](O)[C@H](O[C@H]3[C@@H](CC=O)C[C@@H](C)[C@@H](O)CN(C)CC(/C=C/Cc4ccnc5ccccc45)CCOC(=O)C[C@@H](OC(=O)CC)[C@@H]3OC)O[C@@H]2C)C[C@@]1(C)O (stereo in doubt; form 1)", "> 128 µg/mL"),
    ("CCOC(=O)[C@H]1[C@H](C)O[C@@H](O[C@H]2[C@H](N(C)C)[C@@H](O)[C@H](O[C@H]3[C@@H](CC=O)C[C@@H](C)[C@@H](O)CN(CCCCc4ccccc4)CCC(C)NC(=O)C[C@@H](OC(=O)CC)[C@@H]3OC)O[C@@H]2C)C[C@@]1(C)OC(C)=O (stereo in doubt; form 1)", "> 128 µg/mL"),
    ("CCOC(=O)[C@H]1[C@H](C)O[C@@H](O[C@H]2[C@H](N(C)C)[C@@H](O)[C@H](O[C@H]3[C@@H](CC=O)C[C@@H](C)[C@@H](O)CN(C)CCC[C@H](C/C=C/c4ccccc4)OC(=O)C[C@@H](OC(=O)CC)[C@@H]3OC)O[C@@H]2C)C[C@@]1(C)O", "> 128 µg/mL"),
    ("CCOC(=O)[C@H]1[C@H](C)O[C@@H](O[C@H]2[C@H](N(C)C)[C@@H](O)[C@H](O[C@H]3[C@@H](CC=O)C[C@@H](C)[C@@H](O)CN(C)CC(/C=C/Cc4cnc5ccccc5c4)CCOC(=O)C[C@@H](OC(=O)CC)[C@@H]3OC)O[C@@H]2C)C[C@@]1(C)O (stereo in doubt; form 1)", "128 µg/mL"),
    ("CCOC(=O)[C@H]1[C@H](C)O[C@@H](O[C@H]2[C@H](N(C)C)[C@@H](O)[C@H](O[C@H]3[C@@H](CC=O)C[C@@H](C)[C@@H](O)CN(CCCCc4ccccc4)CCCCNC(=O)C[C@@H](OC(=O)CC)[C@@H]3OC)O[C@@H]2C)C[C@@]1(C)OC(C)=O", "> 128 µg/mL"),
    ("CCOC(=O)[C@H]1[C@H](C)O[C@@H](O[C@H]2[C@H](N(C)C)[C@@H](O)[C@H](O[C@H]3[C@@H](CC=O)C[C@@H](C)[C@@H](OC(C)=O)CN(CCCCc4ccccc4)C[C@@H](C)NC(=O)C[C@@H](OC(=O)CC)[C@@H]3OC)O[C@@H]2C)C[C@@]1(C)OC(C)=O", "> 128 µg/mL"),
]
